assay: Steady state PK in plasma, CSF, brain cortex after 10 daily s.c. doses in nonhuman primates; assay type: in vivo, cynomolgus monkey; details: in vivo, sc; cynomolgus monkey; brain (cortex); 5 mg/kg s.c., 10 daily doses; read-out: brain:plasma ratio
metric: Kp
Kindly provide the number alone.

Reported Kp for Cc1cc(O)cc(C)c1C[C@H](NC(=O)[C@H](N)CCCNC(=N)N)C(=O)N[C@@H](CCCCN)c1nc(Cc2ccccc2)no1 : what is it?
51

====

assay: Steady state PK in plasma, CSF, brain after 5 daily s.c. doses in rats; type: in vivo, male Sprague-Dawley rat; settings: brain, sc; rat; 10 mg/kg s.c., 5 daily doses; read-out: brain:plasma ratio
metric: Kp
Response field accepts a number only; no unit should be typed.

Query (molecule): Cc1cc(O)cc(C)c1C[C@H](NC(=O)[C@H](N)CCCNC(=N)N)C(=O)N[C@@H](CCCCN)c1nc(Cc2ccccc2)no1 ; field requested: Kp
178
